system: Human immunodeficiency virus 1; experiment: Binding affinity to HIV1 YU-2 gp120 assessed as change in entropy by isothermal titration calorimetric analysis
Please provide measured -TdeltaS for the entries that follow.
Numbers only, in kcal/mol.

Consider the following illustrative entries.
CN(Cc1ccc2c(c1)C[C@H](CNC(=N)N)[C@H]2NC(=O)C(=O)Nc1ccc(Cl)c(F)c1)C(=N)N 5.8
CN(Cc1ccc2c(c1)[C@H](NC(=O)C(=O)Nc1ccc(Cl)c(F)c1)[C@@H](CNC(=N)N)C2)C(=N)N 4.6

So for CNCc1ccc2c(c1)C[C@H](CNC(=N)N)[C@H]2NC(=O)C(=O)Nc1ccc(Cl)c(F)c1 , the logged -TdeltaS turned out to be 10.7

Origin of measurements: ChEMBL document CHEMBL4680075
